Target: Sodium-dependent noradrenaline transporter (Homo sapiens)
Sequence (P23975 whole entry): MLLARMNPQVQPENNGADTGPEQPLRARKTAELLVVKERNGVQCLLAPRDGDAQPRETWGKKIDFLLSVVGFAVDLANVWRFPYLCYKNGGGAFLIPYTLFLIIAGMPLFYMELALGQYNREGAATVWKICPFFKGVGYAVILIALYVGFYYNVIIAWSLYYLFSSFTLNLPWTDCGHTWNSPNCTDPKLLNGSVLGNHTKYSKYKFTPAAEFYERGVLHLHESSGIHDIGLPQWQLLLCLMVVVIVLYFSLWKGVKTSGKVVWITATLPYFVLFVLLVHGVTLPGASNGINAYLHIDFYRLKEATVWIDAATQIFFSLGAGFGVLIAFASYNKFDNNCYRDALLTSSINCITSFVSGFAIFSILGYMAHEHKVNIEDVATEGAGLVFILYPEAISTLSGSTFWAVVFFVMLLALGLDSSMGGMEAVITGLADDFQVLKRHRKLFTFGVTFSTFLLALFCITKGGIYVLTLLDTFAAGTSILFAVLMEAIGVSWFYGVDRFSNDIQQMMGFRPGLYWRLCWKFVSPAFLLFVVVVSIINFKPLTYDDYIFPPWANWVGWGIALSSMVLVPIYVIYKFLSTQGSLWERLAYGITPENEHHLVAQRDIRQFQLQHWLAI
Assay: Inhibition of re-uptake of [3H]-NE at human NET expressed in HEK293 cells by liquid scintillation counting
pIC50: −log10 of the molar value.
readoutType: pIC50

1) c1ccc(CC2CCN(CCCn3nnnc3-c3cccc4ccccc34)CC2)cc1	5.60
2) FC(F)(F)c1cccc(-c2nnnn2CCCN2CCC(Cc3ccccc3)CC2)c1	5.29
3) Clc1ccccc1-c1nnnn1CCCN1CCC(Cc2ccccc2)CC1	5.40
4) c1ccc(CC2CCN(CCCn3nnnc3-c3ccccc3)CC2)cc1	5.52
5) O=[N+]([O-])c1ccc(-c2nnnn2CCCN2CCC(Cc3ccccc3)CC2)cc1	5.30
6) CC(=O)c1cccc(-c2nnnn2CCCN2CCC(Cc3ccccc3)CC2)c1	5.52
7) Clc1ccc(-c2nnnn2CCCN2CCC(Cc3ccccc3)CC2)cc1	5.59
8) Fc1ccc(-c2nnnn2CCCN2CCC(Cc3ccccc3)CC2)cc1	5.64
9) Brc1cccc(-c2nnnn2CCCN2CCC(Cc3ccccc3)CC2)c1	5.36
10) Clc1cccc(-c2nnnn2CCCN2CCC(Cc3ccccc3)CC2)c1	5.44

* * *

IC50: recorded values
Target: Sodium-dependent noradrenaline transporter (Homo sapiens)
Test: Inhibition of re-uptake of [3H]-NE at human NET expressed in HEK293 cells by liquid scintillation counting
readoutType: IC50 (µM)

1. CC(=O)c1cccc(-c2nnnn2CCN2CCC(Cc3ccccc3)CC2)c1	3.08
2. Clc1cccc(-c2nnnn2CCCN2CCC(Cc3ccccc3)CC2)c1Cl	3.45
3. Brc1ccccc1-c1nnnn1CCCN1CCC(Cc2ccccc2)CC1	3.46
4. COc1ccc(-c2nnnn2CCCN2CCC(Cc3ccccc3)CC2)cc1	5.52
5. O=[N+]([O-])c1ccc(-c2nnnn2CCN2CCC(Cc3ccccc3)CC2)cc1	1.35

* * *

Biological target: Sodium-dependent dopamine transporter (Homo sapiens)
Sequence (Q01959 whole entry): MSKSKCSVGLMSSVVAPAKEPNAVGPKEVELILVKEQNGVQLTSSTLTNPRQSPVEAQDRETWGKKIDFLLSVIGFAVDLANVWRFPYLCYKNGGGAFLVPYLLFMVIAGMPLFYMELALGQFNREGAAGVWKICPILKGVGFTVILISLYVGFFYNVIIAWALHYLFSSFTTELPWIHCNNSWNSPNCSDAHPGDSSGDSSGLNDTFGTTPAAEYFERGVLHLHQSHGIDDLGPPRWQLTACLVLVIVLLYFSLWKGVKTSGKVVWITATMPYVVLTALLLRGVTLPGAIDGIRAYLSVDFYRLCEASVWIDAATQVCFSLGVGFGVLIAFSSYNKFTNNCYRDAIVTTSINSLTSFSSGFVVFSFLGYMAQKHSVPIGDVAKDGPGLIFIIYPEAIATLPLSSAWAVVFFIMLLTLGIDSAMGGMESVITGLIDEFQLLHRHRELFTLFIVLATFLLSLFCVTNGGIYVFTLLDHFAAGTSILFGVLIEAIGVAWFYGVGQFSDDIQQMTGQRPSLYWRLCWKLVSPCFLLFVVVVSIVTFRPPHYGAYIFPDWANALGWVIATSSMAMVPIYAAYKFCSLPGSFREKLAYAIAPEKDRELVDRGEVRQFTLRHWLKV
Assay: Inhibition of re-uptake of [3H]-DA at human DAT expressed in HEK293 cells by liquid scintillation counting
pIC50: −log10 of the molar value.
pIC50: recorded values
readoutType: pIC50

1) Fc1ccc(-c2nnnn2CCCN2CCC(Cc3ccccc3)CC2)cc1	5.48
2) O=[N+]([O-])c1ccc(-c2nnnn2CCN2CCC(Cc3ccccc3)CC2)cc1	5.70
3) CC(=O)c1cccc(-c2nnnn2CCCN2CCC(Cc3ccccc3)CC2)c1	5.30
4) FC(F)(F)c1cccc(-c2nnnn2CCCN2CCC(Cc3ccccc3)CC2)c1	5.43
5) Clc1ccc(-c2nnnn2CCCN2CCC(Cc3ccccc3)CC2)cc1	5.08
6) CC(=O)c1cccc(-c2nnnn2CCN2CCC(Cc3ccccc3)CC2)c1	4.84
7) Clc1ccccc1-c1nnnn1CCCN1CCC(Cc2ccccc2)CC1	5.18
8) Clc1cccc(-c2nnnn2CCCN2CCC(Cc3ccccc3)CC2)c1	5.29
9) c1ccc(CC2CCN(CCCn3nnnc3-c3cccc4ccccc34)CC2)cc1	5.22
10) c1ccc(CC2CCN(CCCn3nnnc3-c3ccccc3)CC2)cc1	5.40

* * *

Target: Sodium-dependent serotonin transporter (Homo sapiens)
Experiment: Inhibition of re-uptake of [3H]-5-HT at human SERT expressed in HEK293 cells by liquid scintillation counting
pIC50: −log10 of the molar value.
readoutType: pIC50

1) Clc1ccc(-c2nnnn2CCCN2CCC(Cc3ccccc3)CC2)cc1	5.50
2) Brc1ccccc1-c1nnnn1CCCN1CCC(Cc2ccccc2)CC1	5.29
3) COc1ccc(-c2nnnn2CCCN2CCC(Cc3ccccc3)CC2)cc1	5.39
4) Fc1ccc(-c2nnnn2CCCN2CCC(Cc3ccccc3)CC2)cc1	5.70
5) Clc1cccc(-c2nnnn2CCCN2CCC(Cc3ccccc3)CC2)c1Cl	5.40

* * *

Target: Sodium-dependent serotonin transporter (Homo sapiens, UniProt P31645)
Sequence (P31645 whole entry): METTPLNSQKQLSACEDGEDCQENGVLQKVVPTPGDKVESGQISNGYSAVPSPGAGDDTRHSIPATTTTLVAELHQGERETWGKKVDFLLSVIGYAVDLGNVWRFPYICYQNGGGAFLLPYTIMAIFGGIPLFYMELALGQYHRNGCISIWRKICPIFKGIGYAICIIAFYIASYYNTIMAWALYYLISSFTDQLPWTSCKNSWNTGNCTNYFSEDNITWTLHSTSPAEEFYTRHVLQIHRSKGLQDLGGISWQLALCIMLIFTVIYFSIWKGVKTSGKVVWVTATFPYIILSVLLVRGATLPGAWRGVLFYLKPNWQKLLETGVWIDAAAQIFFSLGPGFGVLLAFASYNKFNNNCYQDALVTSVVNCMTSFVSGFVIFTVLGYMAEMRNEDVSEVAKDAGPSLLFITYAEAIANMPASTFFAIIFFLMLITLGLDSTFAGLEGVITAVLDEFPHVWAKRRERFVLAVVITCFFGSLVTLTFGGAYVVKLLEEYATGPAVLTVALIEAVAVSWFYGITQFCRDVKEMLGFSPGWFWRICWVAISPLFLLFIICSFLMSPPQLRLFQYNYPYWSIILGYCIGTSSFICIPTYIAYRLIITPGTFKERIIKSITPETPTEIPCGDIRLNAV
Assay: Inhibition of re-uptake of [3H]-5-HT at human SERT expressed in HEK293 cells by liquid scintillation counting
Type: cell-based
IC50: recorded values
readoutType: IC50 (nM)

1. Clc1cccc(-c2nnnn2CCCN2CCC(Cc3ccccc3)CC2)c1	1350
2. CC(=O)c1cccc(-c2nnnn2CCN2CCC(Cc3ccccc3)CC2)c1	4050
3. c1ccc(CC2CCN(CCCn3nnnc3-c3ccccc3)CC2)cc1	880
4. CC(=O)c1cccc(-c2nnnn2CCCN2CCC(Cc3ccccc3)CC2)c1	540
5. O=[N+]([O-])c1ccc(-c2nnnn2CCCN2CCC(Cc3ccccc3)CC2)cc1	5250
6. c1ccc(CC2CCN(CCCn3nnnc3-c3cccc4ccccc34)CC2)cc1	310
7. O=[N+]([O-])c1ccc(-c2nnnn2CCN2CCC(Cc3ccccc3)CC2)cc1	1240
8. FC(F)(F)c1cccc(-c2nnnn2CCCN2CCC(Cc3ccccc3)CC2)c1	8810
9. Clc1ccccc1-c1nnnn1CCCN1CCC(Cc2ccccc2)CC1	1320
